# Tested on: Mus musculus
# protocol-summary: In vivo protective activity administered sc 1 hr after ip Streptococcus pyogenes 77A strain infection in mice
# Format: functional
# experimental-parameters: read-out: PD50
recorded-metric: ED50

Sample records with ED50:
1) CO[C@H]1CCC[C@H]2C1=C(C(=O)[O-])N1C(=O)[C@H]([C@@H](C)O)[C@@H]21.[Na+] [SANFETRINEM SODIUM] = 1.46 mg/kg
2) CC(C)[C@@H](O)C1=C(C(=O)[O-])N2C(=O)[C@H]([C@@H](C)O)C2[C@H]1C.[Na+] (some centres undefined) = 1.19 mg/kg
3) C[C@@H](O)[C@H]1C(=O)N2C(C(=O)O)=C(S[C@@H]3CN[C@H](C(=O)N(C)C)C3)[C@H](C)[C@H]12 = 4.6 mg/kg

# ED50 lookup, item C[C@H]1C([C@H](O)C2CC2)=C(C(=O)[O-])N2C(=O)[C@H]([C@@H](C)O)C12.[Na+] (some centres undefined)
7.94 mg/kg
